Collected IC50 values appear next to each entry.
- Tested On: Protein farnesyltransferase (Homo sapiens, UniProt P49354+P49356)
- Assay Overview: Inhibition of partially purified human recombinant FTase measured for 15 mins by automated fluorescence based assay
Assay Metric: IC50 (µM)

[
  {
    "Compound Structure String": "O=C(CCN1c2ccccc2Sc2ccccc21)NCc1cn(CC(=O)c2ccc(Cl)cc2)nn1",
    "Assay Metric": "IC50",
    "Measurement": 7.7
  },
  {
    "Compound Structure String": "O=C(CCN1c2ccccc2Sc2ccccc21)NCc1cn(CC(=O)c2ccc(Br)cc2)nn1",
    "Assay Metric": "IC50",
    "Measurement": 8.3
  },
  {
    "Compound Structure String": "N#Cc1ccc(C(=O)Cn2cc(CNC(=O)CCN3c4ccccc4Sc4ccccc43)nn2)cc1",
    "Assay Metric": "IC50",
    "Measurement": 5.2
  },
  {
    "Compound Structure String": "O=C(CN1c2ccccc2Sc2ccccc21)NCc1cn(CC(=O)c2ccc(Br)cc2)nn1",
    "Assay Metric": "IC50",
    "Measurement": 24.3
  },
  {
    "Compound Structure String": "O=C(CCN1c2ccccc2Sc2ccccc21)OCc1cn(CC(=O)c2ccc(Br)cc2)nn1",
    "Assay Metric": "IC50",
    "Measurement": 1.3
  },
  {
    "Compound Structure String": "O=C(CCN1c2ccccc2Sc2ccccc21)OCc1cn(CC(=O)c2ccc(Cl)cc2)nn1",
    "Assay Metric": "IC50",
    "Measurement": 1.5
  }
]
